# systemTested: Rat Hepatic V1 Receptors (Rattus norvegicus, UniProt P30560)
# Construct: Rat liver plasma membranes expressing the vasopressin V1 receptor subtypes; from tissue; host or cells: rat liver plasma membranes
# Sequence (P30560 whole entry): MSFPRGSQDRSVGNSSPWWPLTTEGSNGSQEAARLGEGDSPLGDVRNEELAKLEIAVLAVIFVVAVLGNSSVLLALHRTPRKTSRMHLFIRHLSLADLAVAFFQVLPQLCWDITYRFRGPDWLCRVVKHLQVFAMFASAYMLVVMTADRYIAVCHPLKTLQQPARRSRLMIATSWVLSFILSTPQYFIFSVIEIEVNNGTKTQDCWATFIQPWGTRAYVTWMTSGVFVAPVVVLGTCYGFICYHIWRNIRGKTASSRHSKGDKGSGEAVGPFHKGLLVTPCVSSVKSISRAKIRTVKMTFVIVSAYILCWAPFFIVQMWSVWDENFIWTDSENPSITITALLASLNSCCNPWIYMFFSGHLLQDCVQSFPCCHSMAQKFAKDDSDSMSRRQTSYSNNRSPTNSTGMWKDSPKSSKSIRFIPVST
# protocolText: Binding Assay to Rat Hepatic V1 Receptors
# experimentalConditions: Rat Hepatic V1 Receptors (no asterisk)
assayMetric: IC50
Could you kindly put the unit after your number?

Here are 2 compounds together with their reported answers.
Cn1cc2c(n1)-c1sccc1N(C(=O)c1ccc(NC(=O)C3CCCCC3)cc1)CC2 [Example 6]; 4.7 µM
O=C(Nc1ccc(C(=O)N2CCc3cn[nH]c3-c3sccc32)cc1)c1ccc(F)cc1Cl [Example 1]; 2 µM

Next compound, IC50 to be filled in.
Record Cc1ccc(F)cc1C(=O)Nc1ccc(C(=O)N2CCc3cn[nH]c3-c3sccc32)cc1 [Example 2] , field IC50: 1.7 µM
